// data source = paper PMC3035456

MEASURED_ON: T1, TIAR12 (UniProt Q01085 1-181)
T1 sequence: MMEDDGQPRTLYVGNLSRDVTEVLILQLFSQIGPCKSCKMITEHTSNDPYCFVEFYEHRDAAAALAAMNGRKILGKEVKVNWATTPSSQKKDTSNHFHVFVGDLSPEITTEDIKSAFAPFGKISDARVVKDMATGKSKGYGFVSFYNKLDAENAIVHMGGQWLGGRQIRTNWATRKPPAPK
RUN_DESCRIPTION: SPR
MEASURED_QUANTITY: pKd
One number for each entry, as −log10 of the molar value.

**Query** Quick one: pKd of TTTTTTTTTTTTTTTTTTTT (ssDNA) [T-rich DNA 20-mer] ?
**Result** 8.42
